Test: Metabolic stability in human hepatic microsome
Type: in vitro ADME
Conditions: microsomes, pH 7.4; human hepatic microsome, NADPH(+); read-out: CL NADPH(+)
Starred links: 1 amine or outer side, 2 acyl side, 3 side chain; linkers in the order of their positions; H or OH if unused. Positions of bridges follow the written chain, without caps; N, C: chain ends. Non-standard residues stand in square brackets, D forms with d. Residues, ends and D or L forms follow the SMILES beside them. *: point of attachment. Phe(3-(CH2)4CO) = O=C([C@H](Cc1cccc(CCCCC(=O)[*:3])c1)N[*:1])[*:2]; NMeF = CN[C@@H](Cc1ccccc1)C(=O)O; NMeI = CC[C@H](C)[C@H](NC)C(=O)O; NMeL = CN[C@@H](CC(C)C)C(=O)O; NMeA = CN[C@@H](C)C(=O)O; Piperidide = C1CCN(*)CC1; dNMeA = CN[C@H](C)C(=O)O; Sar = CNCC(=O)O; tBu = CC(C)(C)*
Collected microsomal CLint at 1 uM values appear next to each entry.
Answer format: numeric, µL/min/mg implied, no suffix.

Incoming: Recorded microsomal CLint at 1 uM of CC(C)C[C@@H]1NC(=O)[C@H](Cc2ccccc2)N(C)C(=O)[C@H](Cc2ccccc2)N(C)C(=O)[C@H]([C@@H](C)O)NC(=O)CN(C)C(=O)[C@H](C)NC(=O)C[C@@H](C(=O)N2CCCCC2)NC1=O [DP-751] (A[Sar]T[NMeF][NMeF]LD-Piperidide; lactam N-7) , please.
Outgoing: 156

Incoming: Recorded microsomal CLint at 1 uM of CC(C)C[C@@H]1NC(=O)[C@H](CC(C)C)N(C)C(=O)[C@H](Cc2ccccc2)N(C)C(=O)CNC(=O)[C@H]([C@@H](C)O)NC(=O)[C@H](CC(C)C)N(C)C(=O)[C@H](Cc2ccccc2)NC(=O)[C@@H](C)N(C)C(=O)C[C@@H](C(=O)N2CCCCC2)NC(=O)[C@H](COC(C)(C)C)NC1=O [DP-120] ([dNMeA]F[NMeL]TG[NMeF][NMeL]LS(tBu)D-Piperidide; lactam N-10) , please.
Outgoing: 84

Incoming: Recorded microsomal CLint at 1 uM of CC[C@H](C)[C@H]1C(=O)N(C)[C@@H](CC(C)C)C(=O)N[C@H](C(=O)N2CCCCC2)Cc2cccc(c2)CCCCC(=O)N[C@@H]([C@@H](C)O)C(=O)N(C)[C@@H](C)C(=O)N(C)[C@@H](Cc2ccccc2)C(=O)N(C)[C@@H](Cc2ccccc2)C(=O)N(C)[C@@H](CC(C)C)C(=O)NCC(=O)N1C [DP-840] (T[NMeA][NMeF][NMeF][NMeL]G[NMeI][NMeL][Phe(3-(CH2)4CO)]-Piperidide; lactam N-9) , please.
Outgoing: 357

Origin of measurements: patent US9409952B2
